Data provenance: patent US8178506B2

System: adipocytes
Experiment: Triglyceride accumulation assay in adipocytes
Type: cell-based, human
Conditions: differentiating adipocytes transfected with oligomeric compound; Table 75
In the oligonucleotide strings, read from the 5' end, every base follows the letter of its sugar. An asterisk marks phosphorothioate; unmarked linkages are phosphodiester. Other units and linkages are bracketed, terminal groups are in braces. A string of capitals states the bases alone. e = 2'-O-(2-methoxyethyl) (MOE); [5mC] = 5-methylcytosine
quantity: TG (triglyceride accumulation)

Identify the reported TG (triglyceride accumulation) for the following entry. 346907 (AUGUAUGUGGGACGGUAAACCA; all 2'-MOE, all phosphorothioate, methylation of C and T or U not given here) [compound 346907]
47 percentage of untreated control (UTC)

Identify the reported TG (triglyceride accumulation) for the following entry. 327891 (antisense eG*eG*e[5mC]*e[5mC]*eG*eT*eG*eA*e[5mC]*eT*eG*eG*eA*eG*eA*e[5mC]*eT*eG*eT*eT*eA) [compound 327891]
22 percentage of untreated control (UTC)

---

Test system: mir-21 miRNA
Test: pGL3-mir-21 sensor luciferase assay in HeLa cells
Type: cell-based, human
Details: Table 44, pGL3-mir-21 sensor-expressing HeLa cells, 50 nM
In the oligonucleotide strings, read from the 5' end, every base follows the letter of its sugar. An asterisk marks phosphorothioate; unmarked linkages are phosphodiester. Other units and linkages are bracketed, terminal groups are in braces. A string of capitals states the bases alone. e = 2'-O-(2-methoxyethyl) (MOE); [5mC] = 5-methylcytosine; d = 2'-deoxy (DNA)
Field: luciferase expression % UTC. Provide a value for each of the substances that follow.
Give just the number in % UTC; leave the unit off.

Identify the reported luciferase expression % UTC for the following entry. 327901 (antisense eT*eG*eA*eG*e[5mC]*eT*eA*e[5mC]*eA*eG*eT*eG*e[5mC]*eT*eT*e[5mC]*eA*eT*e[5mC]*eT*e[5mC]*eA) [compound 327901]
83.1

Identify the reported luciferase expression % UTC for the following entry. 338697 (antisense TGCCATGAGATTCAACAGTC; all 2'-MOE, all phosphorothioate, methylation of C not given here) [compound 338697]
84.8

Identify the reported luciferase expression % UTC for the following entry. 328415 (antisense eT*eG*e[5mC]*e[5mC]*eA*dT*dG*dA*dG*dA*dT*dT*d[5mC]*dA*dA*e[5mC]*eA*eG*eT*e[5mC]) [compound 328415]
104.4

Identify the reported luciferase expression % UTC for the following entry. 327917 (antisense eT*e[5mC]*eA*eA*e[5mC]*eA*eT*e[5mC]*eA*eG*eT*e[5mC]*eT*eG*eA*eT*eA*eA*eG*e[5mC]*eT*eA) [compound 327917]
847.5

---

Field: % cells in cell cycle phase S. Provide a value for each of the substances that follow.
Test system: HeLa cells
Assay: Cell cycle assay in HeLa cells
Format: cell-based, human
Conditions: HeLa cells, 150 nM, 48 hours, relative to untreated control
In the oligonucleotide strings, read from the 5' end, every base follows the letter of its sugar. An asterisk marks phosphorothioate; unmarked linkages are phosphodiester. Other units and linkages are bracketed, terminal groups are in braces. A string of capitals states the bases alone. e = 2'-O-(2-methoxyethyl) (MOE); [5mC] = 5-methylcytosine; d = 2'-deoxy (DNA)
Give just the number in %; leave the unit off.

Identify the reported % cells in cell cycle phase S for the following entry. 328342 (e[5mC]*eA*eA*eT*eT*dG*d[5mC]*dG*d[5mC]*dT*dA*d[5mC]*dA*dG*dA*eA*e[5mC]*eT*eG*eT) [compound 328342]
89

Identify the reported % cells in cell cycle phase S for the following entry. 328707 (eG*e[5mC]*eA*eA*e[5mC]*dA*dG*dG*d[5mC]*d[5mC]*dT*d[5mC]*dA*dA*dT*eA*eT*e[5mC]*eT*eT) [compound 328707]
87

Identify the reported % cells in cell cycle phase S for the following entry. 328403 (antisense eA*eG*eG*e[5mC]*e[5mC]*dT*dA*dT*dT*d[5mC]*d[5mC]*dT*dG*dT*dA*eG*e[5mC]*eA*eA*eA) [compound 328403]
89

Identify the reported % cells in cell cycle phase S for the following entry. 25690 (antisense eA*eT*e[5mC]*e[5mC]*e[5mC]*dT*dT*dT*d[5mC]*dT*dT*d[5mC]*d[5mC]*dG*d[5mC]*eA*eT*eG*eT*eG) [compound 25690]
89

Identify the reported % cells in cell cycle phase S for the following entry. 327902 (antisense eG*eG*e[5mC]*eT*eG*eT*e[5mC]*eA*eA*eT*eT*e[5mC]*eA*eT*eA*eG*eG*eT*e[5mC]*eA*eG) [compound 327902]
96

Identify the reported % cells in cell cycle phase S for the following entry. 338797 (antisense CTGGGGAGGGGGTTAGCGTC; all 2'-MOE, all phosphorothioate, methylation of C not given here) [compound 338797]
89

Identify the reported % cells in cell cycle phase S for the following entry. 327905 (antisense e[5mC]*eA*eG*eA*e[5mC]*eT*e[5mC]*e[5mC]*eG*eG*eT*eG*eG*eA*eA*eT*eG*eA*eA*eG*eG*eA) [compound 327905]
99

Identify the reported % cells in cell cycle phase S for the following entry. 340350 (antisense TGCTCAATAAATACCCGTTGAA; all 2'-MOE, all phosphorothioate, methylation of C not given here) [compound 340350]
94

Identify the reported % cells in cell cycle phase S for the following entry. 328744 (antisense e[5mC]*eG*eG*eA*eT*d[5mC]*d[5mC]*dT*dG*dT*dT*dA*d[5mC]*d[5mC]*dT*e[5mC]*eA*e[5mC]*e[5mC]*eA) [compound 328744]
110

Identify the reported % cells in cell cycle phase S for the following entry. 338678 (antisense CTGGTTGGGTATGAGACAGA; all 2'-MOE, all phosphorothioate, methylation of C not given here) [compound 338678]
94

Identify the reported % cells in cell cycle phase S for the following entry. 341787 (antisense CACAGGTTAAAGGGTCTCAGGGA; all 2'-MOE, all phosphorothioate, methylation of C not given here) [compound 341787]
96

---

Test system: HeLa cells
Assay: Cell cycle assay in HeLa cells
Format: cell-based, human
Details: HeLa cells, 25 nM, 48 hours; percentage of cells in phase, average of replicates
Method: In some embodiments, HeLa cells were plated on collagen-coated 24-well plates at 50,000-60,000 cells per well, and allowed to attach to wells overnight. […] In some embodiments, HeLa cells were also treated with oligomeric compounds targeting miRNAs. […] The cell cycle profile was analyzed with the ModFit program (Verity Software House, Inc., Topsham Me.). […]
In the oligonucleotide strings, read from the 5' end, every base follows the letter of its sugar. An asterisk marks phosphorothioate; unmarked linkages are phosphodiester. Other units and linkages are bracketed, terminal groups are in braces. A string of capitals states the bases alone. e = 2'-O-(2-methoxyethyl) (MOE); [5mC] = 5-methylcytosine; d = 2'-deoxy (DNA)
Field: % cells in cell cycle phase: S. Provide a value for each of the substances that follow.
Give just the number in %; leave the unit off.

Identify the reported % cells in cell cycle phase: S for the following entry. 327902 (antisense eG*eG*e[5mC]*eT*eG*eT*e[5mC]*eA*eA*eT*eT*e[5mC]*eA*eT*eA*eG*eG*eT*e[5mC]*eA*eG) [compound 327902]
23

Identify the reported % cells in cell cycle phase: S for the following entry. 328383 (eA*eG*eA*eG*eG*dG*dG*dA*dG*dA*d[5mC]*dG*dA*dG*dA*eG*e[5mC]*eA*e[5mC]*eT) [compound 328383]
25

Identify the reported % cells in cell cycle phase: S for the following entry. 328403 (antisense eA*eG*eG*e[5mC]*e[5mC]*dT*dA*dT*dT*d[5mC]*d[5mC]*dT*dG*dT*dA*eG*e[5mC]*eA*eA*eA) [compound 328403]
24

Identify the reported % cells in cell cycle phase: S for the following entry. 327905 (antisense e[5mC]*eA*eG*eA*e[5mC]*eT*e[5mC]*e[5mC]*eG*eG*eT*eG*eG*eA*eA*eT*eG*eA*eA*eG*eG*eA) [compound 327905]
24

---

Tested on: IL-12 mRNA
Assay: IL-12 mRNA in LPS-activated primary murine macrophages
Type: cell-based, mouse
Details: 300 nM oligomeric compound and LPS, no IFN-gamma pretreatment; single experiment; normalized to LPS-treated cells without oligomeric compound
Experimental: To investigate the role of miRNAs in the immune response, oligomeric compounds of the present invention targeting miRNAs were tested for their effects upon lipopolysaccharide (LPS)-activated primary murine macrophages. Macrophages participate in the immune response, for example, in the recognition and phagocytosis of microorganisms, including bacteria. […]
In the oligonucleotide strings, read from the 5' end, every base follows the letter of its sugar. An asterisk marks phosphorothioate; unmarked linkages are phosphodiester. Other units and linkages are bracketed, terminal groups are in braces. A string of capitals states the bases alone. e = 2'-O-(2-methoxyethyl) (MOE); [5mC] = 5-methylcytosine; d = 2'-deoxy (DNA)
quantity: IL-12 mRNA expression, −IFN % UTC (% UTC)
Give just the number in % UTC; leave the unit off.

Identify the reported IL-12 mRNA expression, −IFN % UTC for the following entry. 327958 (antisense e[5mC]*e[5mC]*eG*eG*e[5mC]*eT*eG*e[5mC]*eA*eA*e[5mC]*eA*e[5mC]*eA*eA*eG*eA*e[5mC]*eA*e[5mC]*eG*eA) [compound 327958]
188

Identify the reported IL-12 mRNA expression, −IFN % UTC for the following entry. 229927 (antisense e[5mC]*e[5mC]*eA*e[5mC]*eA*dT*dT*dG*dA*dG*dT*dT*dT*d[5mC]*dT*eT*eT*eA*eA*eG) [compound 229927]
92

Identify the reported IL-12 mRNA expression, −IFN % UTC for the following entry. 327874 (antisense eG*e[5mC]*eT*eG*e[5mC]*eA*eA*eA*e[5mC]*eA*eT*e[5mC]*e[5mC]*eG*eA*e[5mC]*eT*eG*eA*eA*eA*eG) [compound 327874]
202

Identify the reported IL-12 mRNA expression, −IFN % UTC for the following entry. 341786 (antisense CGCAAGGUCGGUUCUACGGGUG; all 2'-MOE, all phosphorothioate, methylation of C and T or U not given here) [compound 341786]
266

Identify the reported IL-12 mRNA expression, −IFN % UTC for the following entry. 327959 (antisense e[5mC]*eA*eG*e[5mC]*e[5mC]*eG*e[5mC]*eT*eG*eT*e[5mC]*eA*e[5mC]*eA*e[5mC]*eG*e[5mC]*eA*e[5mC]*eA*eG) [compound 327959]
183

Identify the reported IL-12 mRNA expression, −IFN % UTC for the following entry. 327961 (antisense eG*eG*eG*eG*eT*eA*eT*eT*eT*eG*eA*e[5mC]*eA*eA*eA*e[5mC]*eT*eG*eA*e[5mC]*eA) [compound 327961]
203

Identify the reported IL-12 mRNA expression, −IFN % UTC for the following entry. 327928 (antisense eA*eA*e[5mC]*e[5mC]*eG*eA*eT*eT*eT*e[5mC]*eA*eG*eA*eT*eG*eG*eT*eG*e[5mC]*eT*eA*eG) [compound 327928]
201

Identify the reported IL-12 mRNA expression, −IFN % UTC for the following entry. 340345 (antisense GGAACUUAGCCACUGUGAA; all 2'-MOE, all phosphorothioate, methylation of C and T or U not given here) [compound 340345]
104

Identify the reported IL-12 mRNA expression, −IFN % UTC for the following entry. 327963 (antisense eA*eA*e[5mC]*e[5mC]*eT*eA*eT*e[5mC]*e[5mC]*eT*eG*eA*eA*eT*eT*eA*e[5mC]*eT*eT*eG*eA*eA) [compound 327963]
224

Identify the reported IL-12 mRNA expression, −IFN % UTC for the following entry. 327917 (antisense eT*e[5mC]*eA*eA*e[5mC]*eA*eT*e[5mC]*eA*eG*eT*e[5mC]*eT*eG*eA*eT*eA*eA*eG*e[5mC]*eT*eA) [compound 327917]
225
